Measured IC50 by item
Measurement Target: H1047R PIK3CA enzyme (Homo sapiens, UniProt P42336, H1047R)
Sequence (P42336 whole entry H1047R): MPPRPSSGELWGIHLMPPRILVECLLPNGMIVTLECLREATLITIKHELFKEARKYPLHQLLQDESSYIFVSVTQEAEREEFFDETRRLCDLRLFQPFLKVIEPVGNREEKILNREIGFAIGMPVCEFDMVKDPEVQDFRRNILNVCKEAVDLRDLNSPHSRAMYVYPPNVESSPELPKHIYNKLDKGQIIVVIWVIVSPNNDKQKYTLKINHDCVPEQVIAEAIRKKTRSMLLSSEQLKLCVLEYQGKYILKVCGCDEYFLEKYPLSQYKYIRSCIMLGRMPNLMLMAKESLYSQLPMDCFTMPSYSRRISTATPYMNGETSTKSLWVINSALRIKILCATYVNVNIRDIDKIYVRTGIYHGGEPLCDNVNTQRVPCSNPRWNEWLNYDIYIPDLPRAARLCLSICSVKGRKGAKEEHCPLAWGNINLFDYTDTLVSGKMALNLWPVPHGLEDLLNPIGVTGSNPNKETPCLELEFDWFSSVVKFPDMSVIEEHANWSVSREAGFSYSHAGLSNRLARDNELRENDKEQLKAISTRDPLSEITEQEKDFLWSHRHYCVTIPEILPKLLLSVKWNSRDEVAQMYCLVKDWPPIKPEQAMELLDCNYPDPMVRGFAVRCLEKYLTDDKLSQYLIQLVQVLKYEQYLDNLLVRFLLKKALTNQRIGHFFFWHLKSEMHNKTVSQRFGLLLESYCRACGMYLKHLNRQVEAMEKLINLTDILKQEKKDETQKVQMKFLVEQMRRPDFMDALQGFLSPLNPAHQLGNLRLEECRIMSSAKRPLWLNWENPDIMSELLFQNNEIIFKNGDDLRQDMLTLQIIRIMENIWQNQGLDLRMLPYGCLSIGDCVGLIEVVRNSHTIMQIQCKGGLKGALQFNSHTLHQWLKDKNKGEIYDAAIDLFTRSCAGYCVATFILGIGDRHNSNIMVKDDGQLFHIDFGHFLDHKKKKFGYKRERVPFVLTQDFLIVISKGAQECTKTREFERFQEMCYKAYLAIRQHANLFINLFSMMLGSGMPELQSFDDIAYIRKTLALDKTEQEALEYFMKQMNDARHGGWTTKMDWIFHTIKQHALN
Sequence (P27986 whole entry partner): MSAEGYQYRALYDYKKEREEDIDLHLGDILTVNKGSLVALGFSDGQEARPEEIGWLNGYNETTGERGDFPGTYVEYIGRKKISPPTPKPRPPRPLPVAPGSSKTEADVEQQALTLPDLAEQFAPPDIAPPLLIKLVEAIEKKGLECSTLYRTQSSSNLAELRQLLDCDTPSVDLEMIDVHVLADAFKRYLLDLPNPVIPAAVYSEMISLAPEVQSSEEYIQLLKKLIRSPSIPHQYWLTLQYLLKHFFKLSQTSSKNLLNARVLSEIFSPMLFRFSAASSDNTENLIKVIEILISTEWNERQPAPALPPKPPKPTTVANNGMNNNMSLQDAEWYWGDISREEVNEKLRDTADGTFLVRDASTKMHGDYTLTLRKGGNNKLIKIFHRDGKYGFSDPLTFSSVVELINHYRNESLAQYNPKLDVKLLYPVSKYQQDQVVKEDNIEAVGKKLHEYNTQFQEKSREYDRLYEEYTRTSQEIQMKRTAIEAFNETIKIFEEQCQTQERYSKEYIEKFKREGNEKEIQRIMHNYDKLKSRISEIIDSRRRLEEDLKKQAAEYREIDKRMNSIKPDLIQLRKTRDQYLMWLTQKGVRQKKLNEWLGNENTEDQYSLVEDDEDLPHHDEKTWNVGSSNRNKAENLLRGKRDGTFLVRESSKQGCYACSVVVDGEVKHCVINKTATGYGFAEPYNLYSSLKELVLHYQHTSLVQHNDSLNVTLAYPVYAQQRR
Run Description: ADP-Glo Biochemical PIK3CA Kinase Assay
Metric: IC50

1) CNC(=O)c1cnc(Nc2ccccc2C)c(NC(=O)c2ccc(F)c3ccccc23)c1 :: 10 to 100 µM
2) CNC(=O)c1cnc(Nc2ccccc2C)c(NC(=O)c2cccc(C(F)(F)F)c2)c1 :: 1 to 10 µM
3) CC(=O)Nc1ccc(C(=O)Nc2cc(-c3cnn(C)c3)cnc2Nc2ccccc2C)cc1 :: 10 to 100 µM
4) Cc1ccccc1Nc1ncc(C(=O)NC2C[S+]([O-])C2)cc1NC(=O)c1nsc2ccccc12 (stereo not shown) :: 0.1 to 0.5 µM
5) CNC(=O)c1cnc(Nc2ccccc2C)c(NC(=O)c2cccc(C#N)n2)c1 :: 10 to 100 µM
6) Cc1ccccc1Nc1ncc(-c2cnn(C)c2)cc1NC(=O)c1cccc(S(C)(=O)=O)c1 :: 10 to 100 µM
7) CNC(=O)c1cnc(Nc2ccccc2C(C)C)c(NC(=O)c2cc(F)cc(C(F)(F)F)c2)c1 :: 1 to 10 µM
8) Cc1ccccc1Nc1ncc(C(=O)Nc2ccccc2)cc1NC(=O)c1cc(F)cc(C(F)(F)F)c1 :: 1 to 10 µM
9) Cc1ccccc1Nc1ncc(-c2cnn(C)c2)cc1NC(=O)c1ccc2cc[nH]c2c1 :: 10 to 100 µM
10) Cc1ccccc1Nc1ncc(-c2cnn(C)c2)cc1NC(=O)c1ccc(Cl)c(Cl)c1 :: 1 to 10 µM

###

Reported IC50 values follow for various compounds
Measurement Target: H1047R PIK3CA enzyme (Homo sapiens, UniProt P42336, H1047R)
Run Description: ADP-Glo Biochemical PIK3CA Kinase Assay
Metric: IC50

1) Cc1ccccc1Nc1ncc(-c2cnn(C)c2)cc1NC(=O)c1ccc(S(C)(=O)=O)cc1 :: 10 to 100 µM
2) CNC(=O)c1cnc(Nc2ccccc2C#N)c(NC(=O)c2cc(F)cc(C(F)(F)F)c2)c1 :: 10 to 100 µM
3) Cc1ccccc1Nc1ncc(-c2ccc(C#N)cc2)cc1NC(=O)c1cc(F)cc(C(F)(F)F)c1 :: 0.1 to 0.5 µM
4) O=C(Nc1cccc(=O)n1Cc1ccccc1Cl)c1csc2ccccc12 :: 10 to 100 µM
5) O=C1CCCC(c2nc3c(F)cc(C(F)(F)F)cc3[nH]2)N1Cc1cc(F)ccc1Cl (centres unmarked) :: 10 to 100 µM
6) Cc1ccccc1Nc1ncc(C(=O)NC2C[S+]([O-])C2)cc1NC(=O)c1csc2ccccc12 (centres unmarked) :: ≤ 0.1 µM
7) CNC(=O)c1cnc(Nc2ccccc2C)c(NC(=O)c2cc(F)cc(F)c2)c1 :: 1 to 10 µM
8) CNC(=O)c1cnc(Nc2ccccc2C)c(NC(=O)CC2COc3ccccc3O2)c1 (centres unmarked) :: 10 to 100 µM
9) CNC(=O)c1cnc(Nc2ccccc2C)c(NC(=O)C2CCNc3ccccc32)c1 (centres unmarked) :: 10 to 100 µM
10) CN1CC[C@H](NC(=O)c2cnc(N3CCOc4ccccc43)c(NC(=O)c3csc4ccccc34)c2)C1 (racemic) :: 0.5 to 1 µM
11) COc1cccc(C(=O)Nc2cc(-c3cnn(C)c3)cnc2Nc2ccccc2C)c1 :: 10 to 100 µM
12) CNC(=O)c1cnc(Nc2ccccc2C)c(NC(=O)c2csc3cc(C)ccc23)c1 :: 1 to 10 µM
13) Cc1ccccc1Nc1ncc(-c2ccc(C(N)=O)cc2)cc1NC(=O)c1cc(F)cc(C(F)(F)F)c1 :: 0.1 to 0.5 µM
14) Cc1ccccc1Nc1ncc(-c2cnn(C)c2)cc1NC(=O)c1cccc2ccccc12 :: 10 to 100 µM
15) CNC(=O)c1cnc(Nc2ccc(C#N)cc2)c(NC(=O)c2cc(F)cc(C(F)(F)F)c2)c1 :: 1 to 10 µM
16) Cc1ccccc1Nc1ncc(-c2cn[nH]c2)cc1NC(=O)c1cc(F)cc(C(F)(F)F)c1 :: 1 to 10 µM
17) CNc1ncc(-c2cnn(C)c2)cc1NC(=O)c1cc(F)cc(C(F)(F)F)c1 :: 10 to 100 µM
18) CNC(=O)c1cnc(Nc2ccccc2C)c(NC(=O)c2cn3ccccc3n2)c1 :: 10 to 100 µM
19) Cn1cc(NC(=O)c2csc3ccccc23)c(N2CCOc3ccccc32)cc1=O :: 1 to 10 µM
20) Cc1ccccc1Nc1ncc(C(=O)N[C@@H]2CCN(C)C2)cc1NC(=O)c1cc(F)cc(C(F)(F)F)c1 (stereo in doubt) :: 1 to 10 µM

###

Measurement Target: H1047R PIK3CA enzyme (Homo sapiens, UniProt P42336, H1047R)
Run Description: ADP-Glo Biochemical PIK3CA Kinase Assay
Experimental Conditions: ADP-Glo biochemical PIK3CA kinase assay
Experimental: Compounds to be assayed were plated in 16 doses of 1:2 serial dilutions (20 nL volume each well) on a 1536-well plate, and the plate warmed to room temperature. PIK3CA enzyme (e.g. H1047R, E542K, E545K, or wild-type) (1 μL of 2 nM solution in Enzyme Assay Buffer (comprising 50 mM HEPES pH 7.4, 50 mM NaCl, 6 mM MgCl2, 5 mM DTT and 0.03% CHAPS)) was added and shaken for 10 seconds and preincubated for 30 minutes. […]
The entries below come with measured IC50 values attached.
Metric: IC50

1) CNC(=O)c1cnc(Nc2ccccc2C)c(NC(=O)c2nn(C(C)C)c3ccccc23)c1 :: 10 to 100 µM
2) Cc1ccccc1Nc1ncncc1NC(=O)c1csc2ccccc12 :: 1 to 10 µM
3) CNC(=O)c1cnc(Nc2ccccc2C)c(NC(=O)c2c[nH]c3ccc(Cl)cc23)c1 :: 10 to 100 µM
4) Cc1ccccc1Nc1ncc(C(=O)NC2CC(=O)N(C)C2)cc1NC(=O)c1csc2ccccc12 (stereo not shown) :: 0.1 to 0.5 µM
5) COC(=O)c1cnc(N)c(NC(=O)c2csc3ccccc23)c1 :: 1 to 10 µM
6) Cc1ccccc1Nc1ncc(CNC2CS(=O)(=O)C2)cc1NC(=O)c1cc(F)cc(C(F)(F)F)c1 :: 1 to 10 µM
7) CNC(=O)c1cnc(Nc2ccccc2C)c(NC(=O)C2(c3cccc(Br)c3)CC2)c1 :: 10 to 100 µM
8) COc1cc(CCNC(=O)c2cnc(Nc3ccccc3C)c(NC(=O)c3csc4ccccc34)c2)ccn1 :: 0.1 to 0.5 µM
9) COc1ccnc(CNC(=O)c2cnc(Nc3ccccc3C)c(NC(=O)c3cc(F)cc(C(F)(F)F)c3)c2)c1 :: 1 to 10 µM
10) Cc1ccccc1Nc1ncc(C(=O)N2CC(O)C2)cc1NC(=O)c1csc2ccccc12 :: 0.1 to 0.5 µM
11) Cc1ccccc1Nc1ncc(-c2ccn[nH]2)cc1NC(=O)c1cc(F)cc(C(F)(F)F)c1 :: 1 to 10 µM
12) CNC(=O)c1cnc(Nc2ccccc2C)c(NC(=O)c2cc3c(Cl)cccn3c2)c1 :: 10 to 100 µM
13) Cc1ccccc1Nc1ncc(C(=O)Nc2ccc3cccnc3c2)cc1NC(=O)c1csc2ccccc12 :: 0.5 to 1 µM
14) Cc1ccccc1Nc1ncc(C(=O)N2CC(C)C2)cc1NC(=O)c1csc2ccccc12 :: 0.1 to 0.5 µM
15) CNC(=O)c1cnc(Nc2ccccc2C)c(NC(=O)c2ccc(C)c(F)c2)c1 :: 1 to 10 µM
16) CNC(=O)c1cnc(Nc2ccccc2C)c(NC(=O)c2ccc3occ(Cl)c3c2)c1 :: 10 to 100 µM

###

This section presents molecules with their documented IC50 values.
Measurement Target: H1047R PIK3CA enzyme (Homo sapiens, UniProt P42336, H1047R)
Run Description: ADP-Glo Biochemical PIK3CA Kinase Assay
Experimental Conditions: ADP-Glo biochemical PIK3CA kinase assay
Metric: IC50

1) CNC(=O)c1cnc(Nc2ccccc2C)c(NC(=O)c2cc(Cl)nc(C(F)(F)F)c2)c1 [I-762] :: 0.5 to 1 µM
2) Cc1ccccc1Nc1ncc(C(=O)NCc2cnc3c(C)cccn23)cc1NC(=O)c1csc2ccccc12 [I-561] :: 0.1 to 0.5 µM
3) Cc1ccccc1Nc1ncc(C(=O)N[C@H]2COc3ccccc3C2)cc1NC(=O)c1csc2ccccc12 [I-619] :: 0.1 to 0.5 µM
4) CNC(=O)c1cnc(Nc2ccccc2C)c(NC(=O)c2csc3c2CCC(C)(C)C3)c1 [I-403] :: 10 to 100 µM
5) CCc1c(Cl)c(C(=O)Nc2cc(C(=O)NC)cnc2Nc2ccccc2C)nn1C [I-465] :: 10 to 100 µM
6) CNC(=O)c1cnc(Nc2ccccc2C)c(NC(=O)CCc2ccccc2F)c1 [I-437] :: 10 to 100 µM
7) CNC(=O)c1cnc(NC2CCOc3ccc(F)cc32)c(NC(=O)c2csc3ccccc23)c1 (stereo not shown) [I-745] :: 0.1 to 0.5 µM
8) CNC(=O)c1cnc(Nc2cccc(OC)c2)c(NC(=O)c2csc3ccccc23)c1 [I-401] :: 1 to 10 µM
9) CNC(=O)c1cnc(Nc2c3c(nn2C)CCC3)c(NC(=O)c2csc3ccccc23)c1 [I-743] :: 1 to 10 µM
10) CNC(=O)c1cnc(Nc2ncccc2OC)c(NC(=O)c2csc3ccccc23)c1 [I-405] :: 10 to 100 µM
11) CNC(=O)c1cnc(Nc2ccccc2C)c(NC(=O)C2CCc3cccc(Cl)c32)c1 (stereo not shown) [I-477] :: 10 to 100 µM
12) CNC(=O)c1cnc(Nc2ccccc2C)c(NC(=O)c2ccc3c(cnn3C)c2)c1 [I-431] :: 10 to 100 µM
13) CNC(=O)c1cnc(Nn2nccc2C(F)(F)F)c(NC(=O)c2csc3ccccc23)c1 [I-772] :: ≤ 0.1 µM

All values here come from patent US20250090540A1.
